- SYSTEM_UNDER_TEST: GRIP PDZ4-6 (Rattus norvegicus)
- Construct: corresponding to GRIP1 (amino acid 448-792); made in house; host or cells: E. coli BL21
- Sequence (P97879 448-792): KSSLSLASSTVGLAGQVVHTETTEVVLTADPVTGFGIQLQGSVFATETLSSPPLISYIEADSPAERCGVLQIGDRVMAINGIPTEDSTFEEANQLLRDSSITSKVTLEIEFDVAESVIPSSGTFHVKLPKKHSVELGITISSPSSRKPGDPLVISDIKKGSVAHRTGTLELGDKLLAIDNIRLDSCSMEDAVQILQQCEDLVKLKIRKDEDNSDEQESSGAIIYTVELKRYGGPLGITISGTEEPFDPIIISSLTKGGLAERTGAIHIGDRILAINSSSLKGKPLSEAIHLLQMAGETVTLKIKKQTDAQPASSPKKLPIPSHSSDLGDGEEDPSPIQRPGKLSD
- EXPERIMENTAL_DETAILS: Competitive binding of 35S-EphB2 to His-GRIP-PDZ4-6
- CONDITION_DESCRIPTION: 35S-EphB2 50 nM; fitted to the Hill equation; read-out: Ki, displacement of 35S-EphB2 binding to His-GRIP-PDZ 4-6
Ends that are not written are not given here.
REPORTED_PROPERTY: Ki (nM)
Use nM as the unit, but write only the number.

ITEM_SEQUENCE	Ki / nM
QMNQIQSVEV [EphB2 peptide, Gln-Met-Asn-Gln-Ile-Gln-Ser-Val-Glu-Val]	43

// below: Ki requested for another sequence
# Ki (sequence: NVYGIESVKI [GluR2ct, Asn-Val-Tyr-Gly-Ile-Glu-Ser-Val-Lys-Ile] ) is 106

====

- System: mossy fiber synapses of hippocampal CA3 pyramidal neurons
- EXPERIMENTAL_DETAILS: Mossy fiber LTP, whole-cell patch clamp in hippocampal slices
- Assay type: cell-based, mice
- CONDITION_DESCRIPTION: peptide 50 μM in patch electrode (postsynaptic); 25 to 30 minutes after tetanic stimulation
Square brackets hold non-standard residues; d marks the D form. Ends that are not written are not given here. pS = N[C@@H](COP(=O)(O)O)C(=O)O
# Lookup of reported LTP (potentiation of the EPSC after tetanic stimulation) keyed by entry
Use % as the unit, but write only the number.

Some substances with known LTP (potentiation of the EPSC after tetanic stimulation) results, for comparison:
SUBSTANCE	MEASUREMENT
NVYGIESVKI [GluR2ct, Asn-Val-Tyr-Gly-Ile-Glu-Ser-Val-Lys-Ile]	140
NVIYVKSEIG [R2ctSC, reference compound]	200
QMNQIQSVEV [EphB2 peptide, Gln-Met-Asn-Gln-Ile-Gln-Ser-Val-Glu-Val]	125
LHLHGTGIQV [EphA7 peptide, reference compound]	250

# LTP (potentiation of the EPSC after tetanic stimulation) (substance: R2ctPO4: phosphorylated GluR2/3 peptide; same as SEQ ID NO: 1 except the serine is phosphorylated (NVYGIE[pS]VKI) [reference compound] ) is 210
